So I've got a bunch of compounds here, and I need their IC50 values.
Tested on: T. b. brucei strain 427 (bloodstream forms)
Assay: Anti-trypanosomal activity on T. brucei (resazurin growth inhibition, 3 days)
Format: cell-based, Trypanosoma brucei
Conditions: Trypanosoma brucei, 72 h, T. b. brucei strain 427 bloodstream forms, 3 days, mean ± SD; read-out: T. brucei IC50
Reply with just the number (in µM).

Exam item: Would you kindly share the measured IC50 for "COc1ccc(-c2cc(=O)c3c(O)c(OC)c(O)cc3o2)cc1OC" ?
Marked response: 8.14

Exam item: Sample N=C(N)c1ccc(OCCCCCOc2ccc(C(=N)N)cc2)cc1 [Pentamidine, reference compound] — what was its IC50?
Marked response: 0.004

Exam item: // lookup IC50 for "O=C(/C=C/c1ccc(O)cc1)CC(=O)/C=C/c1ccc(O)cc1"
Marked response: 9.84

* * *

Give measured IC50 for each item. Keep answers brief.
Tested on: T. b. brucei strain 427 (bloodstream forms)
Experiment: Anti-trypanosomal activity on T. brucei (resazurin growth inhibition, 3 days)
Format: cell-based, Trypanosoma brucei
Settings: Trypanosoma brucei, 72 h, T. b. brucei strain 427 bloodstream forms, 3 days, mean ± SD; read-out: T. brucei IC50

Exam item: Bench note: what IC50 did "O=c1c(-c2ccc(O)cc2)coc2cc(O[C@@H]3O[C@H](CO)[C@@H](O)[C@H](O)[C@H]3O)cc(O)c12" show?
Marked response: < 5 µM

Exam item: Find the recorded IC50 belonging to C=C[C@H](OC(C)=O)c1ccc(OC(C)=O)cc1 [Compound 11, 1′S-1′-acetoxychavicol acetate] and report it.
Marked response: < 5 µM

Exam item: # get_value(readout='IC50', item= "COc1ccc([C@H](O)[C@@H](C)Oc2ccc([C@H]3O[C@H](c4ccc5c(c4)OCO5)[C@H](C)[C@H]3C)cc2OC)cc1OC" )
Marked response: 5.61 µM

* * *

Test: Cytotoxicity assay (resazurin, 3 days), HEK293T
Format: cell-based, human
Conditions: human; HEK293T cells, 3 days; > = highest concentration tested (5 ppm); read-out: Cytotoxicity CC50 Values HEK239T
valueType: CC50 at 3 days

Exam item: // lookup CC50 at 3 days for COc1ccc([C@@H](O)[C@@H](C)Oc2ccc([C@H]3O[C@H](c4ccc(O[C@H](C)[C@H](O)c5ccc(OC)c(OC)c5)c(OC)c4)[C@H](C)[C@H]3C)cc2OC)cc1OC [Compound 13, manassantin A]
Marked response: > 11.8 µM

* * *

Assay: Cytotoxicity assay (resazurin, 3 days), HEK293T
Format: cell-based, human
Details: human
valueType: CC50 at 3 days

Exam item: May I ask what CC50 at 3 days has been recorded for O=C1c2ccc(O)cc2OC[C@H]1Cc1ccc(O)c(O)c1 [Compound 19, 3-deoxysappanone B] ?
Marked response: > 35 µM

Exam item: Would you kindly share the measured CC50 at 3 days for O=c1cc(-c2ccc(O)cc2)oc2cc(O)cc(O)c12 [Compound 16, apigenin] ?
Marked response: > 37 µM

Exam item: Fill blank: measured CC50 at 3 days of the compound C=C(C)[C@H](CC=C(C)C)Cc1c(O)cc(O)c2c1O[C@H](c1ccc(O)cc1O)CC2=O [Compound 15, kushenol F] is ____.
Marked response: > 23.8 µM

Exam item: Form field: reported CC50 at 3 days of COc1ccc(-c2cc(=O)c3c(O)c(OC)c(O)cc3o2)cc1OC [Compound 17, eupatilin]
Marked response: > 29.1 µM

Exam item: # CC50 at 3 days lookup, item C=CCc1ccc(O)c(-c2ccc(O)c(CC=C)c2)c1 [Compound 10, honokiol]
Marked response: > 37.6 µM

Exam item: CC50 at 3 days for COc1cc(O)ccc1C(=O)/C=C/c1ccc(O)cc1 [Compound 5, 3-deoxysappanchalcone] ?
Marked response: > 30.2 µM

Exam item: Given O=c1c(-c2ccc(O)cc2)coc2cc(O[C@@H]3O[C@H](CO)[C@@H](O)[C@H](O)[C@H]3O)cc(O)c12 [Compound 21, genistin] , state its recorded CC50 at 3 days.
Marked response: > 23.1 µM

Exam item: Which CC50 at 3 days value belongs to CC(C)=CCc1cc(C(=O)/C=C/c2ccc(O)c(O)c2)c(O)cc1O [Compound 4, broussochalcone A] ?
Marked response: > 28.8 µM

Exam item: Look up CC50 at 3 days for this compound: C=C[C@H](OC(C)=O)c1ccc(OC(C)=O)cc1 [Compound 11, 1′S-1′-acetoxychavicol acetate]
Marked response: > 23.2 µM

Exam item: I have this compound here, COc1ccc([C@@H](O)[C@@H](C)Oc2ccc([C@H]3O[C@H](c4ccc(O[C@H](C)[C@H](O)c5ccc6c(c5)OCO6)c(OC)c4)[C@H](C)[C@H]3C)cc2OC)cc1OC [Compound 14, manassantin B] , and I need its recorded CC50 at 3 days.
Marked response: > 11 µM

Exam item: CC50 at 3 days lookup needed for O=c1c(-c2ccc(O[C@@H]3O[C@H](CO)[C@@H](O)[C@H](O)[C@H]3O)cc2)coc2cc(O)cc(O)c12 [Compound 22, sophoricoside] , thanks.
Marked response: > 23.1 µM

Exam item: Look at this compound and give its reported CC50 at 3 days. O=C(/C=C/c1ccc(O)cc1)CC(=O)/C=C/c1ccc(O)cc1 [Compound 1, bisdemethoxycurcumin]
Marked response: > 32.5 µM
